Quick reference for INHIBITION among some compounds
- Test system: Plasmodium berghei
- assay.summary: Screen against P. berghei liver stage (PbLuc), transformed with Luciferase, at 10uM
- Assay type: functional, HepG2
- protocol.conditions: tested at 10 uM
Out of some 69,000 compounds screened, about 8,600 (12%) showed an effect of 50% or more. The sample holds strong results, similar compounds and a random draw of the others, so the mix is not that of the screen.
Report the figure in % without appending any unit label.

Example entries and their recorded answers appear below.
> print(dat)
                                   compound  observation.type  reported
1  Cc1cccc(CN2CCC3(CCCN(Cc4cnn(C)c4)C3)C2=O)n1 (stereo not given)        INHIBITION     0.618
2  Cc1cc(CN2CCOC(C)(C(=O)N3CCOCC3)C2)no1 (stereo not given)        INHIBITION     0.301
3  Cc1cccc(CN2CCOC3(CCCN(CC(=O)N(C)C)C3)C2)n1 (stereo not given)        INHIBITION      59.3
4  CCCN1CC(NC(=O)Nc2nc(C)n(C(C)C)n2)CC1=O (stereo not given)        INHIBITION      44.6
5         CCCn1c(N2CCCC2)nc2c(C)nn(C)c2c1=O        INHIBITION     44.05

Consider CC(=O)N1CCO[C@@H]2CN(S(=O)(=O)C3CC3)C[C@@H]2C1 . Its measured INHIBITION is 50.3

Entry Cn1ncnc1NCc1ccc(F)cc1 , INHIBITION reported as -42.8

Reported INHIBITION ( Cc1nc(NC(=O)NC2CC(=O)N(C)C2)nn1C(C)C (stereo not given) ) = 40.6

The compound listed as CN(Cc1ccn[nH]1)Cc1c[nH]nc1-c1ccc(F)cc1 has a reported INHIBITION of 77.2

The reported INHIBITION of the compound COCCCNC(=O)CN(C)C(=O)c1ccc(-n2cccc2)cc1O was 39.25
